# Target Entity: Serine/threonine-protein kinase PAK 6 (Homo sapiens);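 further: mean PAK6 inhibition reported from the GSK PKIS screen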
# Applied Conditions: at 0.1 µM
Measured inhibition by item
Hi! Could you send only the number? It should be in %, unit omitted.

[O-][S+]1CCN(Cc2ccc(-c3ccc4ncnc(Nc5ccc(OCc6ccccc6)c(F)c5)c4c3)o2)CC1	2.21

Moving on to the next compound.
Ask: Tell me its inhibition on Serine/threonine-protein kinase PAK 6 (Homo sapiens): `COc1cc2ncn(-c3cc(O[C@H](C)c4ccccc4Cl)c(C(N)=O)s3)c2cc1OC`
Reply: 0.91

###

# Target Entity: Dual specificity protein kinase CLK3 (Homo sapiens) (UniProt P49761);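 further: each value is the mean inhibition of CLK3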
# Sequence (P49761 whole entry, looked up): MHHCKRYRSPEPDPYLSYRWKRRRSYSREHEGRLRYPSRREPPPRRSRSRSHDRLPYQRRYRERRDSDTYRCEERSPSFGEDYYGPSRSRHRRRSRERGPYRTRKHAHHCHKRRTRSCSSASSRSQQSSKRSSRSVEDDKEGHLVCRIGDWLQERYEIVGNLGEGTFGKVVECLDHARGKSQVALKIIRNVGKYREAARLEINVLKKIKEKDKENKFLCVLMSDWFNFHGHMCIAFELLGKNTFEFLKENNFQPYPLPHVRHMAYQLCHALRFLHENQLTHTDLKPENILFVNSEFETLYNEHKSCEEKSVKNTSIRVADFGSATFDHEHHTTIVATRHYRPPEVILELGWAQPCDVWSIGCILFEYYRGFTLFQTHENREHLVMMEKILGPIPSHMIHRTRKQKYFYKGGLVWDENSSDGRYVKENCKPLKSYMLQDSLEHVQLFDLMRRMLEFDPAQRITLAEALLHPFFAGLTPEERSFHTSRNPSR
# Applied Conditions: at 1 µM
Measured Metric: inhibition (%)
Your answer should be a plain number; it is taken to be in %.

Examples with their reported inhibition follow.
Fc1cccc(COc2ccc(Nc3ncnc4sc(-c5cccs5)cc34)cc2Cl)c1	-0.15
Cc1cccc(-c2n[nH]cc2-c2ccc3ncccc3n2)n1	-3.14

Ask: Give inhibition for CC1=C(C(=O)Nc2ccc3[nH]ncc3c2)C(c2ccc(F)cc2)NC(=O)N1 (stereo not given)
Reply: 1.47

Ask: # return recorded inhibition for entry `CCCN1CCC(Oc2cc(Nc3nc(Nc4cccc(F)c4C(N)=O)c4cc[nH]c4n3)c(OC)cc2Cl)CC1`
Reply: 1.7

Ask: Give reported inhibition value for `N#Cc1c(NC(=O)c2cccc3ccccc23)sc2c1CCCC2`
Reply: 1.09

Ask: Respond only with inhibition recorded for `O=C1NC(=O)C(c2ccc(Cl)cc2)=C1Nc1ccc(Cl)c(C(=O)O)c1`
Reply: 4.58

Ask: Please report inhibition for the following molecule: `CCn1c(-c2nonc2N)nc2c(C#CC(C)(C)O)nc(OC[C@@H](N)c3ccccc3)cc21`
Reply: 0.8

Ask: Indicate the recorded inhibition value for this molecule: `CS(=O)(=O)CCNCc1ccc(-c2ccc3ncnc(Nc4ccc(OCc5ccccc5)c(Cl)c4)c3c2)o1`
Reply: -0.47

Ask: Consider the molecule `COc1ccc(-c2nn3ncccc3c2-c2ccnc(Nc3ccc(Cl)c(C(F)(F)F)c3)n2)cc1` . State its measured inhibition.
Reply: 0.49

Ask: Give the reported value of inhibition for this record: `CCCN1CCC=C(c2ccc(Nc3nc(Nc4ccccc4C(N)=O)c4cc[nH]c4n3)c(C)c2)C1`
Reply: 6.97

Ask: Give recorded inhibition. `Nc1nc(-c2ccccn2)c(-c2ccc3ncccc3n2)s1`
Reply: 4.76

Ask: Tell me inhibition reported for `Fc1cccc(COc2ccc(Nc3ncnc4cc(-c5ccc[nH]5)sc34)cc2Cl)c1`
Reply: -1.03

Ask: Name the recorded inhibition of the molecule listed here: `Cc1cc(O)cc(C)c1/C=C/c1cncc(-c2nn[nH]n2)c1`
Reply: -1.62

Ask: State its inhibition: `COc1cc(C)c(NC(=O)CN(C)C)cc1Nc1nc(Nc2cccc(F)c2C(N)=O)c2cc[nH]c2n1`
Reply: 13.2

Ask: Check the records and state inhibition for `Cc1nn(C)c2cc(N(C)c3ccnc(Nc4cccc(S(N)(=O)=O)c4)n3)ccc12`
Reply: 3.34

Ask: Identify measured inhibition associated with `NC(=O)c1cccc(Nc2nccc(Nc3cccc4[nH]ncc34)n2)c1`
Reply: 8.54

Ask: Determine from records and report inhibition for `NCc1ccc(-c2nc(-c3ccc(Cl)c(O)c3)c(-c3ccncc3)[nH]2)cc1`
Reply: 3.14

Ask: Determine its reported inhibition: `COc1cc2c(cc1Nc1nc(N3CCc4ccccc43)c3cc[nH]c3n1)N(C(=O)CN(C)C)CC2`
Reply: 2.24

Ask: Specify reported inhibition for the molecule shown: `c1cnn2ncc(-c3ccnc(Nc4ccc5c(c4)OCCO5)n3)c2c1`
Reply: 52

Ask: State its inhibition for this molecule: `Nc1nc(-c2ccc3c(c2)C(=Cc2cc(Br)c(O)c(Br)c2)C(=O)N3)cs1`
Reply: 2.88
